FYI, the data here is from the supplement of paper PMC7156485.

tested on: TDF; assay: cell number relative to DMSO (% of DMSO); higher = more cells (less growth inhibition / toxicity); details: concentration: 10 µM; 24 h;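 further: TDF denotes transformed human dermal fibroblasts of mesenchymal origin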
Where a name gives a salt, the structure may show the parent alone.

# compound, cell number
data = [
    ("CCCCCC=CCC(O)C=CC=CC=CC(O)CCCC(=O)O (stereo unspecified) [Leukotriene B4]", 98.8),
    ("Nc1nc(=O)n(C2CSC(CO)O2)cc1F (stereo unspecified) [Emtricitabine]", 99.4),
    ("C=C1NC(=O)C2=C(CCSC2)N1", 99.5),
    ("CCCCCCC=CCCCCCCCCCC(=O)O [11(E)-Octadecenoic acid]", 99.5),
    ("CN(C)CCCn1cc(C2=C(c3c[nH]c4ccccc34)C(=O)NC2=O)c2ccccc21", 79.5),
    ("O=C(O)CCCC=CCC=CC=CC(O)CC=CCCCCCO (stereo unspecified)", 92.6),
    ("COc1c(O)cc(O)c2c(=O)cc(-c3ccccc3)oc12 [Wogonin]", 98.7),
    ("OC[C@@H](O)[C@H]1NC[C@@H](O)[C@H]1O [1,4-Dideoxy-1,4-imino-D-mannitol hydrochloride]", 104),
    ("CCN(CC)CCNC(=O)c1ccc(N)cc1.Cl [Procainamide hydrochloride]", 110),
    ("CN=C(NC#N)Nc1ccc(C2=NNC(=O)CC2C)cc1 (stereo unspecified) [Siguazodan]", 104),
    ("N#CC(=C1Nc2ccccc2S1)c1ccnc(NCCc2cccnc2)n1 [JNK Inhibitor V]", 87.4),
    ("COc1cc(C(=O)OCCC[NH+]2CCC[NH+](CCCOC(=O)c3cc(OC)c(OC)c(OC)c3)CC2)cc(OC)c1OC.[Cl-].[Cl-] [Dilazep hydrochloride]", 90.1),
    ("Cn1c2ccccc2c2c3c(c4c5ccccc5n(CCC#N)c4c21)CNC3=O", 30.5),
    ("CC(C)NCC(O)c1ccc(O)c(O)c1 (racemic) [DL-Isoproterenol]", 108),
    ("CC(C)(C)NCC(O)c1ccc(O)c(CO)c1.CC(C)(C)NCC(O)c1ccc(O)c(CO)c1.O=S(=O)(O)O (stereo unspecified) [Salbutamol hemisulfate]", 103),
    ("CCN1CCCC1CNC(=O)c1c(OC)ccc(Br)c1OC (stereo unspecified) [Remoxipride]", 101),
    ("O=C(O)c1cc(=O)c2ccc(Cl)cc2[nH]1 [7-Chlorokynurenic acid]", 105),
    ("CN(C)CCCC1(c2ccc(F)cc2)OCc2cc(C#N)ccc21 (stereo unspecified) [Citalopram]", 114),
    ("Cc1ccc(C(=O)c2cc(O)c(O)c([N+](=O)[O-])c2)cc1 [Tolcapone]", 92.1),
    ("CC(C)(C)c1onc(OCP(=O)(O)O)c1CC(N)C(=O)O (stereo unspecified)", 113),
    ("COc1cc2c(cc1OC)C1C(=O)c3ccc4c(c3OC1CO2)C=CC(C)(C)O4 (stereo unspecified) [Degeulin]", 76.5),
    ("Nc1nc(=O)c2ncn(CCC(CO)CO)c2[nH]1 [Penciclovir]", 103),
    ("O=c1[nH]c2ccccc2n1CCCN1CCN(C(c2ccccc2)c2ccccc2)CC1 [Oxatomide]", 105),
    ("NC1CONC1=O [D-Cycloserine]", 96.8),
    ("CCC(C)C(CC)C(N)=O (stereo unspecified) [2-ethyl-3-methylpentanamide]", 107),
    ("O=C1Nc2ccccc2C1=C1Nc2ccccc2C1=O [Indirubin]", 94.7),
    ("O=c1onc2n1-c1cc(Br)ccc1OC2", 104),
    ("O=C(Nc1cc(Cl)cc2c1[nH]c1cnccc12)c1cccnc1 [IKK Inhibitor X]", 91.8),
    ("CNC1C(O)C(NC)C2OC3(O)C(=O)CC(C)OC3OC2C1O (stereo unspecified) [Spectinomycin]", 98),
    ("CC1(C)SC2C(NC(=O)C(N)c3ccccc3)C(=O)N2C1C(=O)O (stereo unspecified) [Ampicillin]", 109),
    ("O=c1c(O)c(-c2ccc(O)c(O)c2)oc2cc(O)ccc12 [Fisetin]", 95.8),
]
